test system: SF-295; assay: NCI tumour cell line growth inhibition, 48 h
Active and inactive are the calls of the source. Cut-off read from the data, not from the text of the source: active = GI50 up to about 1.1 µM and inactive = higher. Square brackets hold non-standard residues; d marks the D form. Peptide text beside a SMILES is read from it. * marks the point of attachment. ξ: configuration not given here. ξW = NC(Cc1c[nH]c2ccccc12)C(=O)O; X29 = O=C(O)[C@H]1CCC[C@H]1N*; ξF = NC(Cc1ccccc1)C(=O)O; Boc = CC(C)(C)OC(=O)*; ξK = NCCCCC(N)C(=O)O; ξT = CC(O)C(N)C(=O)O; tBu = CC(C)(C)*
Outcome codes: TRUE = active, FALSE = inactive

[
  {
    "compound": "CC(=O)Nc1ccc(C(=O)N2N=C(C)/C(=C/c3cccc([N+](=O)[O-])c3)C2=O)cc1",
    "category.label": "FALSE"
  },
  {
    "compound": "c1ccc(C2=NOC3C4CCC(C4)C23)cc1 (configuration not stated)",
    "category.label": "FALSE"
  },
  {
    "compound": "COc1ccc(-c2cc(-c3ccccc3)nc(/N=C\\c3ccccc3)n2)c(O)c1",
    "category.label": "FALSE"
  },
  {
    "compound": "Cc1ccc(NP(=O)(Oc2ccccc2)N(CCCl)CCCl)cc1 (configuration not stated)",
    "category.label": "FALSE"
  },
  {
    "compound": "O=[N+]([O-])c1ccc2[nH]nc(OCc3ccccc3Cl)c2c1",
    "category.label": "FALSE"
  },
  {
    "compound": "CC(C)=CCN1CC(C)C(=O)Nc2cc(Cl)ccc21 (configuration not stated)",
    "category.label": "FALSE"
  },
  {
    "compound": "COc1ccc(/C(Cl)=C(\\c2ccc(OCCN(C)C)cc2)c2ccc(OC(=O)C(C)(C)C)cc2)cc1",
    "category.label": "FALSE"
  },
  {
    "compound": "Cc1ccc(S(=O)(=O)NC(=O)NC(Cc2ccc(O)c(O)c2)C(=O)O)cc1 (configuration not stated)",
    "category.label": "FALSE"
  },
  {
    "compound": "C/C=C1/C(=O)O[C@]23C=C[C@@H]4C(C(=O)OC)=CO[C@H](O[C@@H]12)[C@@H]43",
    "category.label": "FALSE"
  },
  {
    "compound": "COc1ccc(N2C(Cl)C(=O)C2c2c[nH]c3ccccc23)cc1 (configuration not stated)",
    "category.label": "FALSE"
  },
  {
    "compound": "CCCCCCNc1n[nH]c(=O)c2c1nnn2Cc1ccccc1",
    "category.label": "FALSE"
  },
  {
    "compound": "O=C(O)c1nn(-c2ccc(Cl)cc2)c2c1C(=O)c1ccccc1C2=O",
    "category.label": "FALSE"
  },
  {
    "compound": "O=C1NC(Cc2c[nH]c3ccccc23)C(=O)N2C(C3CCCCC3)c3[nH]c4ccccc4c3C[C@@H]12 (some centres not stated)",
    "category.label": "FALSE"
  },
  {
    "compound": "COC(=S)OC1CC(n2cnc3c(=O)[nH]cnc32)OC1CO[Si](C)(C)C(C)(C)C (configuration not stated)",
    "category.label": "FALSE"
  },
  {
    "compound": "CC[C@]12C=CCN3CCC4(c5cc([C@@]6(C(=O)OC)CC7CN(CCc8c6[nH]c6ccccc86)C[C@@H]6CCC[C@H]76)c(OC)cc5N(C)C4[C@](O)(C(=O)OC)C1OC(C)=O)C32 (some centres not stated)",
    "category.label": "TRUE"
  },
  {
    "compound": "O=C(NC1(C(=O)O)CCCC1)c1ccccc1",
    "category.label": "FALSE"
  },
  {
    "compound": "CCOC(=O)c1c(SCCN2CCCCC2)n(-c2ccccc2)c(=S)n(-c2ccccc2)c1=O",
    "category.label": "FALSE"
  },
  {
    "compound": "O=C1CC2Sc3ccccc3N=C2N1c1ccc(Cl)cc1Cl (configuration not stated)",
    "category.label": "FALSE"
  },
  {
    "compound": "CC(=O)SC(C[N+](=O)[O-])c1ccccc1 (configuration not stated)",
    "category.label": "FALSE"
  },
  {
    "compound": "O=C(ON=C1c2ccccc2C(Br)C(Br)c2ccccc21)c1cc([N+](=O)[O-])cc([N+](=O)[O-])c1 (configuration not stated)",
    "category.label": "FALSE"
  },
  {
    "compound": "O=C1c2ccccc2C2C1N2C(=O)C(F)(F)F (configuration not stated)",
    "category.label": "FALSE"
  },
  {
    "compound": "CN(CCCNC(=O)c1cn(C)c2c1ccc1cc(Cl)ccc12)CCCNC(=O)c1cn(C)c2c1ccc1cc(Cl)ccc12",
    "category.label": "FALSE"
  },
  {
    "compound": "COc1cc(/C=C2\\[C@H]3c4c(c(OC)c(C)c(OC)c4OC)CC(C(=O)N2Cc2ccccc2)N3C)c(OC)c(C)c1OC",
    "category.label": "FALSE"
  },
  {
    "compound": "CC(=O)Oc1ccc2cc(-c3ccc(OC(C)=O)c(OC(C)=O)c3)c(=O)oc2c1",
    "category.label": "FALSE"
  },
  {
    "compound": "CC(OC(C)(C)C)C(NC(=O)C(CCCCNC(=O)OC(C)(C)C)NC(=O)C(Cc1c[nH]c2ccccc12)NC(=O)C(N)Cc1ccccc1)C(=O)NC(Cc1ccccc1)C(=O)N[C@@H]1CCC[C@@H]1C(=O)O (some centres not stated) (H-[ξF][ξW][ξK](Boc)[ξT](tBu)[ξF]-X29)",
    "category.label": "FALSE"
  },
  {
    "compound": "CC1(C)C2CCC1(C)C(NC(=O)CCN1CCOCC1)C2 (configuration not stated)",
    "category.label": "FALSE"
  },
  {
    "compound": "COc1ccc(/C=N/NC(=O)C2=C(N)N(c3ccccc3)C(=C(C#N)C#N)S2)cc1",
    "category.label": "FALSE"
  }
]

###

system: SR; experiment: NCI tumour cell line growth inhibition, 48 h
The source made the active and inactive calls. Cut-off read from the data, not from the text of the source: active = GI50 up to about 1.1 µM and inactive = higher.
Outcome codes: active, inactive

[
  {
    "compound": "C=[N+](CNC(=O)CNC(=O)C(Cc1ccc([N+](=O)[O-])cc1)NC(=O)OC(C)(C)C)C(=O)CNC(=O)C(Cc1ccc([N+](=O)[O-])cc1)NC(=O)OC(C)(C)C (centres undefined)",
    "category.label": "inactive"
  },
  {
    "compound": "COC1OC2COC(c3ccccc3)OC2C(O)C1Br (centres undefined)",
    "category.label": "inactive"
  },
  {
    "compound": "CC1(C)[C@@H]2C[C@H]1C(Cc1ccc(C[C@H]3c4cc(-c5ccccn5)ncc4[C@H]4C[C@@H]3C4(C)C)cc1)c1cc(-c3ccccn3)ncc12 (some centres undefined)",
    "category.label": "active"
  },
  {
    "compound": "COc1cc2nc(Sc3c([N+](=O)[O-])ncn3C)[nH]c2cc1OC",
    "category.label": "inactive"
  }
]

###

Listed next: entries and their corresponding GI50.
test system: OVCAR-4; assay: NCI tumour cell line growth inhibition, 48 h
Active and inactive are the calls of the source. No stated cut-off is given here; in the data, active = GI50 up to about 1.1 µM and inactive = higher.
measure: GI50

[
  {
    "compound": "CC(Oc1ccccc1Cl)C(=O)NN1C(=O)CC(=O)NC1=S (centres undefined)",
    "measure": "GI50",
    "experimental.value": "> 100 µM (inactive)"
  },
  {
    "compound": "Cc1nc2cc(C(F)(F)F)ccc2[nH]c1=O",
    "measure": "GI50",
    "experimental.value": "> 100 µM (inactive)"
  },
  {
    "compound": "CC(=O)OCC1OC(OCCCOP(=O)(OCCC#N)OCC2OC(n3cnc4c(N)ncnc43)C(OC(=O)c3ccccc3)C2OC(=O)c2ccccc2)C(OC(C)=O)C(OC(C)=O)C1OC(C)=O (centres undefined)",
    "measure": "GI50",
    "experimental.value": "> 100 µM (inactive)"
  },
  {
    "compound": "O=C1OC2(CC1C1(O)C3CC4CC(C3)CC1C4)C1CC3CC(C1)CC2C3 (centres undefined)",
    "measure": "GI50",
    "experimental.value": "22.1 µM (inactive)"
  },
  {
    "compound": "NC(Cc1ccc(O)cn1)C(=O)O (centres undefined)",
    "measure": "GI50",
    "experimental.value": "> 100 µM (inactive)"
  },
  {
    "compound": "Cc1ncc([N+](=O)[O-])n1CCNCCCCn1ccnc1[N+](=O)[O-]",
    "measure": "GI50",
    "experimental.value": "> 100 µM (inactive)"
  },
  {
    "compound": "C/C=C1/CN2CCc3c([nH]c4ccccc34)[C@@H]2C[C@@H]1Cc1nccc2c1[nH]c1cc(O)ccc12",
    "measure": "GI50",
    "experimental.value": "1.57 µM (inactive)"
  },
  {
    "compound": "CCOC(=O)CN1C(=O)c2cccc3cc([N+](=O)[O-])cc(c23)C1=O",
    "measure": "GI50",
    "experimental.value": "1.85 µM (inactive)"
  },
  {
    "compound": "C/C(=N\\NC(=S)Nc1ccc(Cl)cc1)c1nc2cccnc2[nH]1",
    "measure": "GI50",
    "experimental.value": "5.64 µM (inactive)"
  },
  {
    "compound": "N#CC(C#N)=c1c(=O)c2c3ccccc3cc3cccc1c32",
    "measure": "GI50",
    "experimental.value": "> 100 µM (inactive)"
  },
  {
    "compound": "C/C=C/C(CC(O)(C(F)(F)F)C(F)(F)F)=N/NC(N)=S",
    "measure": "GI50",
    "experimental.value": "> 10 µM (inactive)"
  },
  {
    "compound": "CCNc1ccc2c(c1)C(=O)N(OS(C)(=O)=O)C2=O",
    "measure": "GI50",
    "experimental.value": "42 µM (inactive)"
  },
  {
    "compound": "COc1ccc(OC)c2c1C[C@@H]1C(C#N)N3[C@H](Cc4c(OC)ccc(OC)c4[C@@H]3C)C(=O)N1[C@H]2C (some centres undefined)",
    "measure": "GI50",
    "experimental.value": "3.23 µM (inactive)"
  },
  {
    "compound": "O=C(CSCC(=O)N/N=C/c1cccc(O)c1)N/N=C/c1cccc(O)c1",
    "measure": "GI50",
    "experimental.value": "> 100 µM (inactive)"
  },
  {
    "compound": "Cc1ccc(S(=O)(=O)N2CCCCC2CCO)cc1 (centres undefined)",
    "measure": "GI50",
    "experimental.value": "> 100 µM (inactive)"
  },
  {
    "compound": "Cc1ccc(-c2cc(N)n(-c3nc4c(c(=O)n(C)c(=O)n4C)n3C)n2)cc1",
    "measure": "GI50",
    "experimental.value": "42.5 µM (inactive)"
  },
  {
    "compound": "Cc1ccc(S(=O)(=O)NC(=O)NC(Cc2ccc(O)c(O)c2)C(=O)O)cc1 (centres undefined)",
    "measure": "GI50",
    "experimental.value": "> 100 µM (inactive)"
  },
  {
    "compound": "CCn1c(-c2c(Cl)cc(O)cc2Cl)cc2c(Cl)cc(O)cc21",
    "measure": "GI50",
    "experimental.value": "4.85 µM (inactive)"
  },
  {
    "compound": "C1=CC=C2NCCC/N=C3/C=CC=CC=C3NCCC/N=C\\2C=C1",
    "measure": "GI50",
    "experimental.value": "> 100 µM (inactive)"
  }
]
